Recorded measurements of Emax, one per entry
Biological target: μ-opioid receptor (Homo sapiens, UniProt P35372)
Sequence (P35372 whole entry, species assumed): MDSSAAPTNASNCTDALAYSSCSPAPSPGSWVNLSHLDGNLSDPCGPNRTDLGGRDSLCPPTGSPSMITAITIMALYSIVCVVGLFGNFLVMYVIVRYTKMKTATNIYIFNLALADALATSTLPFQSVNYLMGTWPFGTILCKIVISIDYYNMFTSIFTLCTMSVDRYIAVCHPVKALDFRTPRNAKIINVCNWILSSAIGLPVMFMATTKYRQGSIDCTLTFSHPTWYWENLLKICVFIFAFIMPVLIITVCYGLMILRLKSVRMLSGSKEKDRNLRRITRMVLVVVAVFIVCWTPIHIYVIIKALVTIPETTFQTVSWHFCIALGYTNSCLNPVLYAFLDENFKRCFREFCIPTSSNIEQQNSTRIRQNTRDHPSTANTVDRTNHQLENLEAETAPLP
Test: μ-opioid receptor [35S]GTPγS functional assay, U-2 OS cells
Assay type: biochemical
Parameters: expressed in transfected cells; host or cells: U-2 OS
Conditions: U-2 OS cells; relative to DAMGO; read-out: GTPγS μ Emax
quantity.name: Emax (%)

- compound: "CN1CC[C@@]2(C)c3cc(O)ccc3C[C@@H]1[C@H]2N(C)C(=O)c1ccsc1"
  quantity.name: "Emax"
  unit.of.measure: "%"
  observed.measurement: 70.7
- compound: "CC(C)CCC(=O)N(C)[C@H]1[C@H]2Cc3ccc(O)cc3[C@]1(C)CCN2C"
  quantity.name: "Emax"
  unit.of.measure: "%"
  observed.measurement: 104
- compound: "CN(C(=O)Nc1ccc(C#N)cc1)[C@H]1C2Cc3ccc(O)cc3[C@@]1(C)CCN2CC1CC1"
  quantity.name: "Emax"
  unit.of.measure: "%"
  observed.measurement: 113
- compound: "CN1CC[C@@]2(C)c3cc(O)ccc3C[C@@H]1[C@@H]2N(C)S(=O)(=O)c1cccc(C(F)(F)F)c1"
  quantity.name: "Emax"
  unit.of.measure: "%"
  observed.measurement: 95.3
- compound: "CN1CC[C@@]2(C)c3cc(O)ccc3C[C@@H]1[C@H]2NCCc1ccc(S(N)(=O)=O)cc1"
  quantity.name: "Emax"
  unit.of.measure: "%"
  observed.measurement: 85.3
- compound: "CN1CC[C@@]2(C)c3cc(O)ccc3C[C@@H]1[C@H]2N(C)C(=O)C1CCCCC1"
  quantity.name: "Emax"
  unit.of.measure: "%"
  observed.measurement: 76.3
- compound: "CN(C)C(=O)C(CCN1CC[C@]2(C)c3cc(O)ccc3CC1C2N(C)C(=O)Nc1ccc(C#N)cc1)(c1ccccc1)c1ccccc1 (stereo in doubt)"
  quantity.name: "Emax"
  unit.of.measure: "%"
  observed.measurement: 90.7
- compound: "COc1ccc2c(c1)[C@@]1(C)CCN(C)[C@@H](C2)C1=NNC(=O)c1ccc(F)cc1"
  quantity.name: "Emax"
  unit.of.measure: "%"
  observed.measurement: 91
- compound: "CCC[C@@]12CCN(C)C(Cc3ccc(OC)cc31)[C@@H]2N(C)C(=O)Nc1ccc(C#N)cc1"
  quantity.name: "Emax"
  unit.of.measure: "%"
  observed.measurement: 62.3
